System: CCRF-CEM leukemia
Assay: NCI tumour cell line growth inhibition, 48 h
Assay Readout: TGI

Use these answered entries as a reference point.
Compound | TGI
COC1C=CC(O)C(CO)O1 (stereo unspecified) | > 100 µM
COC(=O)[C@H](C)NC(=O)NC(=O)NC(=O)CI | 4.44 µM
CCOc1ccccc1NC(=O)CC(C(=O)OC)C(=O)C(=O)OC (stereo unspecified) | > 100 µM
Cc1nc(N)sc1C(=O)/C=C\c1ccc2c(c1)OCO2 | > 100 µM
CCN(CC)C(=S)N/N=C(/C)c1cccc(/C(C)=N\NC(=S)N(CC)CC)n1 | > 100 µM

Next compound, please.
Enter TGI (test system CCRF-CEM leukemia) for `NCCCCN(CCCN)/[N+]([O-])=N\O`
> 100 µM

// data source = PubChem BioAssay (NCI)
